- Tested on: Cancer cell lines
- protocol.details: Potency index, ratio of 5-fluorouracil GI50 to compound GI50 for human renal cancer cells
- Assay type: functional
assay.metric: RatioGI50

Below are worked cases with known answers.
>>> value_reported("COc1cc2nc(SCc3cc(OC)c(OC)c(OC)c3)n(Cc3ccccc3)c(=O)c2cc1OC")
"2 - 10"
>>> value_reported("COc1cc(CSc2nc3ccc(Cl)cc3c(=O)n2Cc2ccccc2)cc(OC)c1OC")
"2 - 10"
>>> value_reported("COc1cc(CSc2nc3ccc(C)cc3c(=O)n2-c2ccccc2)cc(OC)c1OC")
10
>>> value_reported("COc1ccc(-n2c(SCc3cc(OC)c(OC)c(OC)c3)nc3ccc(C)cc3c2=O)c(OC)c1")
"2 - 10"

Can you give me RatioGI50 for all of these, one by one?
1. COc1ccc(-n2c(SCc3cc(OC)c(OC)c(OC)c3)nc3ccc(C)cc3c2=O)cc1
2. COc1ccccc1-n1c(SCc2cc(OC)c(OC)c(OC)c2)nc2ccc(Cl)cc2c1=O
3. COc1cc(CSc2nc3ccc(C)cc3c(=O)n2Cc2ccccc2)cc(OC)c1OC

Result:
1. 2 - 10
2. 2 - 10
3. 10

====

- tgt: Dihydrofolate reductase (Bos taurus)
- Sequence (P00376 whole entry): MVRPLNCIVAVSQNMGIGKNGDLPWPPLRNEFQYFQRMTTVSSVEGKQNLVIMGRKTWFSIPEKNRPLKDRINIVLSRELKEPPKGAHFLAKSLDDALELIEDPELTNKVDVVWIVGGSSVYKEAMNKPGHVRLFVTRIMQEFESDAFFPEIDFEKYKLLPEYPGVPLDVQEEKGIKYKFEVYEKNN
Please provide measured IC50 for the entries that follow.
Record the result as number plus unit.

Below are worked cases with known answers.
>>> value_reported("COc1ccc(CSc2nc3ccc(C)cc3c(=O)n2-c2ccc(OC)cc2OC)cc1")
"700 nM"
>>> value_reported("COc1cc(CSc2nc3ccc(C)cc3c(=O)n2-c2ccccc2)cc(OC)c1OC")
"7000 nM"
>>> value_reported("COc1ccc(-n2c(SCc3cc(OC)c(OC)c(OC)c3)nc3ccc(C)cc3c2=O)cc1")
"10000 nM"
>>> value_reported("COc1ccc(CSc2nc3cc(OC)c(OC)cc3c(=O)n2-c2ccc(C)cc2)cc1")
"2000 nM"
>>> value_reported("COc1cc(CSc2nc3ccc(C)cc3c(=O)n2-c2ccc(Cl)cc2)cc(OC)c1OC")
"900 nM"
>>> value_reported("COc1cc(CSc2nc3ccc(C)cc3c(=O)n2-c2ccc(C)cc2)cc(OC)c1OC")
"1500 nM"
>>> value_reported("COc1cc(CSc2nc3ccc(Cl)cc3c(=O)n2Cc2ccccc2)cc(OC)c1OC")
"4000 nM"
>>> value_reported("COc1ccc(CSc2nc3ccc(C)cc3c(=O)n2-c2ccc(Cl)cc2)cc1")
"100 nM"
>>> value_reported("COc1ccc(CSc2nc3ccc(C)cc3c(=O)n2-c2ccc(C)cc2)cc1")
"1000 nM"
>>> value_reported("COc1cc(CSc2nc3ccc(C)cc3c(=O)n2Cc2ccccc2)cc(OC)c1OC")
"1000 nM"

Can you give me IC50 for all of these, one by one?
1. COc1ccc(CSc2nc3cc(OC)c(OC)cc3c(=O)n2-c2ccc(OC)cc2)cc1
2. COc1ccc(CSc2nc3ccc(Cl)cc3c(=O)n2-c2ccccc2OC)cc1
3. COc1cc(CSc2nc3ccc(Cl)cc3c(=O)n2-c2ccc(Cl)cc2)cc(OC)c1OC
4. COc1ccc(CSc2nc3cc(OC)c(OC)cc3c(=O)n2-c2ccccc2)cc1
5. COc1ccc(-n2c(SCc3cc(OC)c(OC)c(OC)c3)nc3ccc(C)cc3c2=O)c(OC)c1
6. COc1ccc(-n2c(SCc3cc(OC)c(OC)c(OC)c3)nc3cc(OC)c(OC)cc3c2=O)c(OC)c1
7. COc1cc2nc(SCc3cc(OC)c(OC)c(OC)c3)n(Cc3ccccc3)c(=O)c2cc1OC
8. COc1ccc(CSc2nc3ccc(Cl)cc3c(=O)n2-c2ccc(C)cc2)cc1

Result:
1. 800 nM
2. 800 nM
3. 2000 nM
4. 4000 nM
5. 3000 nM
6. 3000 nM
7. 2000 nM
8. 4000 nM

Can you give me IC50 for all of these, one by one?
1. COc1ccc(-n2c(SCc3cc(OC)c(OC)c(OC)c3)nc3ccc(Cl)cc3c2=O)cc1
2. COc1ccccc1-n1c(SCc2cc(OC)c(OC)c(OC)c2)nc2ccc(Cl)cc2c1=O

Result:
3000 nM
100 nM

Source: ChEMBL document CHEMBL3860041
